# test: in vivo
# studyConditions: NODSCID IL2RKO, mouse, iv, 3.7 MBq, total radioactivity, % ID/g Fat Average
Where a SMILES comes first, the peptide text is derived from it. [ ]: non-standard residue; d: D form. The star is where a group is joined. DOTA = O=C(O)CN1CCN(CC(=O)O)CCN(CC(=O)*)CCN(CC(=O)O)CC1; Hyp = O=C(O)[C@@H]1C[C@@H](O)CN1; Cha = N[C@@H](CC1CCCCC1)C(=O)O; PEG2 = NCCOCCOCCC(=O)O
metricName: tissue uptake at 1 h (%ID/g)
Give bare numbers, in %ID/g.

IN: Name the recorded tissue uptake at 1 h for CC(C)C[C@H](NC(=O)[C@@H]1CCCN1C(=O)[C@H](CO)NC(=O)[C@H](CC1CCCCC1)NC(=O)CNC(=O)[C@@H]1C[C@@H](O)CN1C(=O)[C@@H]1CCCN1C(=O)[C@H](CCCNC(=N)N)NC(=O)[C@H](CCCCN)NC(=O)CCOCCOCCNC(=O)CN1CCN(CC(=O)O)CCN(CC(=O)O)CCN(CC(=O)O)CC1)C(=O)O [Ga-68 Peptide 3, metal not drawn] ({DOTA-PEG2}-KRP[Hyp]G[Cha]SPL-OH) .
OUT: 0.12
